Each item that follows carries a reported Prodrug (%).
- Run Description: Plasma stability assay, human plasma
- Type: in vitro ADME
- Test Context: human, 60 min, 10 µM
Test Readout: Prodrug (%)

> print(dat)
                            smiles.notation  unit.text  recorded.number
1  CCCCC(=O)O[C@H]1CC[C@@]2(c3ccc(OC)c(OC)c3)CCN(C)[C@H]2C1          %            81.61
2  COc1ccc([C@@]23CC[C@@H](OC(=O)C(C)(C)C)C[C@@H]2N(C)CC3)cc1OC          %             96.3
3  COc1ccc([C@@]23CC[C@H](OC(=O)C(C)(C)C)C[C@@H]2N(C)CC3)cc1OC          %            92.88
4  COc1ccc([C@@]23CC[C@@H](OC(=O)C(C)C)C[C@@H]2N(C)CC3)cc1OC          %              0.1

---

- Run Description: Plasma stability assay, human plasma
- Format: in vitro ADME
- Test Context: human, 60 min, 10 µM
- Protocol: Compound stability in rat and human plasma was measured by incubating compound with rat or human plasma at 37° C. in a microwell plate for sequential time points, monitoring pro-drug disappearance and metabolite appearance (mesembranol or 6-epi-mesembranol). A 2 mM stock solution of test compounds were prepared by dissolving appropriate amount of compounds in DMSO. […] The concentrations of test compounds and positive control were quantified in the test samples using LC-MS/MS. […]
Test Readout: Prodrug (%)

> print(dat)
                                   molecule  result
1  COc1ccc([C@@]23CC[C@@H](OCOC(=O)C(C)C)C[C@@H]2N(C)CC3)cc1OC    0.2%
2  COc1ccc([C@@]23CC[C@@H](OCOC(=O)C(C)(C)C)C[C@@H]2N(C)CC3)cc1OC    1.6%
3  COc1ccc([C@@]23CC[C@H](OC(=O)C(C)C)C[C@@H]2N(C)CC3)cc1OC  97.28%
4  CCCC(=O)OC1CC[C@@]2(c3ccc(OC)c(OC)c3)CCN(C)[C@H]2C1 (stereo in doubt)   83.8%
5  COc1ccc([C@@]23CC[C@H](OC(=O)N(C)C)C[C@@H]2N(C)CC3)cc1OC  >99.0%

---

Prodrug (%) overview
- Run Description: Plasma stability assay, rat plasma
- Type: in vitro ADME
- Test Context: rat, 30 min, 10 µM
Test Readout: Prodrug (%)

> print(dat)
                            smiles.notation  recorded.number
1  COc1ccc([C@@]23CC[C@@H](OC(=O)C(C)C)C[C@@H]2N(C)CC3)cc1OC              0.1
2  COc1ccc([C@@]23CC[C@@H](OC(=O)C(C)(C)C)C[C@@H]2N(C)CC3)cc1OC             38.9
3  COc1ccc([C@@]23CC[C@@H](OCOC(=O)C(C)(C)C)C[C@@H]2N(C)CC3)cc1OC              0.5
4  COc1ccc([C@@]23CC[C@@H](OCOC(=O)C(C)C)C[C@@H]2N(C)CC3)cc1OC              0.0
5  CCOC(=O)O[C@@H]1CC[C@@]2(c3ccc(OC)c(OC)c3)CCN(C)[C@H]2C1              0.0
6  COc1ccc([C@@]23CC[C@H](OC(=O)N(C)C)C[C@@H]2N(C)CC3)cc1OC             95.0
7  CCCC(=O)O[C@H]1CC[C@@]2(c3ccc(OC)c(OC)c3)CCN(C)[C@H]2C1             2.75
8  COc1ccc([C@@]23CC[C@H](OC(=O)C(C)(C)C)C[C@@H]2N(C)CC3)cc1OC             77.8
9  CCCC(=O)OCO[C@@H]1CC[C@@]2(c3ccc(OC)c(OC)c3)CCN(C)[C@H]2C1              0.0

---

- Run Description: Plasma stability assay, human plasma
- Assay type: in vitro ADME
- Test Context: human, 0 min, 10 µM
Each record here notes measured Prodrug (%).
Test Readout: Prodrug (%)

> print(dat)
                                   compound  unit.text  recorded.number
1  CCCCC(=O)O[C@H]1CC[C@@]2(c3ccc(OC)c(OC)c3)CCN(C)[C@H]2C1          %           100.00
2  CCCC(=O)OC1CC[C@@]2(c3ccc(OC)c(OC)c3)CCN(C)[C@H]2C1 (stereo in doubt)          %            100.0
3  COc1ccc([C@@]23CC[C@@H](OC(=O)C(C)C)C[C@@H]2N(C)CC3)cc1OC          %            100.0
4  COc1ccc([C@@]23CC[C@H](OC(=O)C(C)(C)C)C[C@@H]2N(C)CC3)cc1OC          %           100.00
5  CCCC(=O)OCO[C@@H]1CC[C@@]2(c3ccc(OC)c(OC)c3)CCN(C)[C@H]2C1          %            100.0
6  CCCCC(=O)OC1CC[C@@]2(c3ccc(OC)c(OC)c3)CCN(C)[C@H]2C1 (stereo in doubt)          %            100.0
7  COc1ccc([C@@]23CC[C@H](OC(=O)C(C)C)C[C@@H]2N(C)CC3)cc1OC          %           100.00

---

Reported Prodrug (%) by item:
- Run Description: Plasma stability assay, rat plasma
- Format: in vitro ADME
- Test Context: rat, 10 min, 10 µM
Test Readout: Prodrug (%)

> print(dat)
                                    molecule  limit.qualifier  recorded.number
 1  COc1ccc([C@@]23CC[C@H](OC(=O)C(C)(C)C)C[C@@H]2N(C)CC3)cc1OC [Compound 102]                >             99.0
 2  COc1ccc([C@@]23CC[C@@H](OCOC(=O)C(C)C)C[C@@H]2N(C)CC3)cc1OC [Compound 208]                =              0.0
 3  COc1ccc([C@@]23CC[C@@H](OC(=O)C(C)C)C[C@@H]2N(C)CC3)cc1OC [Compound 203]                =              0.1
 4  COc1ccc([C@@]23CC[C@H](OC(=O)N(C)C)C[C@@H]2N(C)CC3)cc1OC [Compound 101]                =             88.7
 5  CCCC(=O)OC1CC[C@@]2(c3ccc(OC)c(OC)c3)CCN(C)[C@H]2C1 (stereo in doubt) [Compound 206]                =              0.8
 6  CCCCC(=O)OC1CC[C@@]2(c3ccc(OC)c(OC)c3)CCN(C)[C@H]2C1 (stereo in doubt) [Compound 205]                =              0.6
 7  COc1ccc([C@@]23CC[C@@H](OC(=O)C(C)(C)C)C[C@@H]2N(C)CC3)cc1OC [Compound 202]                =             80.6
 8  CCCC(=O)OCO[C@@H]1CC[C@@]2(c3ccc(OC)c(OC)c3)CCN(C)[C@H]2C1 [Compound 210]                =              0.0
 9  COc1ccc([C@@]23CC[C@H](OC(=O)C(C)C)C[C@@H]2N(C)CC3)cc1OC [Compound 103]                =             56.1
10  CCCC(=O)O[C@H]1CC[C@@]2(c3ccc(OC)c(OC)c3)CCN(C)[C@H]2C1 [Compound 106]                =             39.9
11  COc1ccc([C@@]23CC[C@@H](OCOC(=O)C(C)(C)C)C[C@@H]2N(C)CC3)cc1OC [Compound 207]                =             26.5
12  CCCCC(=O)O[C@H]1CC[C@@]2(c3ccc(OC)c(OC)c3)CCN(C)[C@H]2C1 [Compound 105]                =             10.8
13  CCOC(=O)O[C@@H]1CC[C@@]2(c3ccc(OC)c(OC)c3)CCN(C)[C@H]2C1 [Compound 209]                =             11.5

---

- Run Description: Plasma stability assay, human plasma
- Format: in vitro ADME
- Test Context: human, 240 min, 10 µM
Test Readout: Prodrug (%)

> print(dat)
                                    molecule  unit.text  limit.qualifier  recorded.number
 1  CCCC(=O)O[C@H]1CC[C@@]2(c3ccc(OC)c(OC)c3)CCN(C)[C@H]2C1 [Compound 106]          %                =            50.22
 2  COc1ccc([C@@]23CC[C@@H](OC(=O)C(C)C)C[C@@H]2N(C)CC3)cc1OC [Compound 203]          %                =              0.1
 3  COc1ccc([C@@]23CC[C@H](OC(=O)C(C)(C)C)C[C@@H]2N(C)CC3)cc1OC [Compound 102]          %                =            94.80
 4  CCCCC(=O)OC1CC[C@@]2(c3ccc(OC)c(OC)c3)CCN(C)[C@H]2C1 (stereo in doubt) [Compound 205]          %                =             67.9
 5  COc1ccc([C@@]23CC[C@@H](OCOC(=O)C(C)(C)C)C[C@@H]2N(C)CC3)cc1OC [Compound 207]          %                =              0.1
 6  CCOC(=O)O[C@@H]1CC[C@@]2(c3ccc(OC)c(OC)c3)CCN(C)[C@H]2C1 [Compound 209]          %                =             72.5
 7  COc1ccc([C@@]23CC[C@@H](OCOC(=O)C(C)C)C[C@@H]2N(C)CC3)cc1OC [Compound 208]          %                =              0.0
 8  CCCCC(=O)O[C@H]1CC[C@@]2(c3ccc(OC)c(OC)c3)CCN(C)[C@H]2C1 [Compound 105]          %                =            50.16
 9  COc1ccc([C@@]23CC[C@H](OC(=O)N(C)C)C[C@@H]2N(C)CC3)cc1OC [Compound 101]          %                >             99.0
10  COc1ccc([C@@]23CC[C@H](OC(=O)C(C)C)C[C@@H]2N(C)CC3)cc1OC [Compound 103]          %                =            87.17
11  CCCC(=O)OCO[C@@H]1CC[C@@]2(c3ccc(OC)c(OC)c3)CCN(C)[C@H]2C1 [Compound 210]          %                =              0.1
12  COc1ccc([C@@]23CC[C@@H](OC(=O)C(C)(C)C)C[C@@H]2N(C)CC3)cc1OC [Compound 202]          %                =             88.1
13  CCCC(=O)OC1CC[C@@]2(c3ccc(OC)c(OC)c3)CCN(C)[C@H]2C1 (stereo in doubt) [Compound 206]          %                =             68.0
